TARGET SYSTEM: Cdk2(S276C) (C177A) (Homo sapiens, UniProt P24941, C177A/S276C)
Construct: poly-histidine; made in house; host or cells: E. coli
PROCEDURE DETAILS: Kinetic thiol consumption assay with Cdk2 mutant S276C
Type: binding
CONDITION CONTEXT: Protein: Cdk2; cysteine position S276C; additional mutation C177A; in h^-1
So basically: is Rate constant with Cdk2 S276C under 0.007? Then 1.0. Not under? Then 0.0.

COMPOUND: C=CC(=O)Nc1ccccc1C(=O)c1ccccc1
TARGET SYSTEM: Cdk2(S276C) (C177A) (Homo sapiens, UniProt P24941, C177A/S276C)
ANSWER LABEL: 0.0
//
COMPOUND: C=CC(=O)Nc1ccccc1N1CCOCC1
TARGET SYSTEM: Cdk2(S276C) (C177A) (Homo sapiens, UniProt P24941, C177A/S276C)
ANSWER LABEL: 1.0
//
COMPOUND: C=CC(=O)NC(Cc1ccccc1)C(O)CF (stereo not shown)
TARGET SYSTEM: Cdk2(S276C) (C177A) (Homo sapiens, UniProt P24941, C177A/S276C)
ANSWER LABEL: 1.0
//
COMPOUND: C=CC(=O)N1CCCC(N2C(=O)CC3(CCCC3)C2=O)C1 (stereo not shown)
TARGET SYSTEM: Cdk2(S276C) (C177A) (Homo sapiens, UniProt P24941, C177A/S276C)
ANSWER LABEL: 1.0
//
COMPOUND: C=CC(=O)Nc1ccccc1C#N
TARGET SYSTEM: Cdk2(S276C) (C177A) (Homo sapiens, UniProt P24941, C177A/S276C)
ANSWER LABEL: 0.0
//
COMPOUND: CN(C#N)Cc1ccccc1
TARGET SYSTEM: Cdk2(S276C) (C177A) (Homo sapiens, UniProt P24941, C177A/S276C)
ANSWER LABEL: 1.0
//
COMPOUND: C=CC(=O)N1CCC2(CC1)CC2C(=O)OC (stereo not shown)
TARGET SYSTEM: Cdk2(S276C) (C177A) (Homo sapiens, UniProt P24941, C177A/S276C)
ANSWER LABEL: 1.0
//
COMPOUND: C=CC(=O)Nc1ccccc1-c1ccccc1
TARGET SYSTEM: Cdk2(S276C) (C177A) (Homo sapiens, UniProt P24941, C177A/S276C)
ANSWER LABEL: 1.0
//
COMPOUND: C=CC(=O)N(Cc1ccc2c(c1)CCO2)C1CCCC1
TARGET SYSTEM: Cdk2(S276C) (C177A) (Homo sapiens, UniProt P24941, C177A/S276C)
ANSWER LABEL: 0.0
//
COMPOUND: C=CC(=O)N(CC(=O)N1CCCC1)CC1CCCO1 (stereo not shown)
TARGET SYSTEM: Cdk2(S276C) (C177A) (Homo sapiens, UniProt P24941, C177A/S276C)
ANSWER LABEL: 1.0

Query: Strictly below 0.007: is that where Rate constant with Cdk2 S276C of C=CC(=O)NC1C2CC3CC(C2)CC1C3 (stereo not shown) sits?
Result: 1.0

Query: Would you kindly verify if Rate constant with Cdk2 S276C of FC(F)(F)c1cc(Cl)ncc1Br is strictly less than 0.007?
Result: 1.0

Query: Hello, I'm reviewing records and need to know if Rate constant with Cdk2 S276C of C=CC(=O)N1CCCN2C(=O)CCC12c1ccc(OC)cc1 (stereo not shown) is below 0.007. Could you check?
Result: 0.0
